# Test system: EKVX NSCLC
# testDetails: NCI tumour cell line growth inhibition, 48 h
propertyMeasured: TGI

compound=C=CCCOC(=O)CO[N+](=O)[O-] assayresult="> 100 µM"
compound=COC(=O)NC1(NC(=O)OC)NC(=O)c2cc(OC)c(OC)cc2N1 assayresult="> 100 µM"
compound=COc1c2ccoc2cc2oc(=O)ccc12 assayresult="> 100 µM"
compound=C[C@H]1C(=O)O[C@@H]1[C@H]1COC(C)(C)O1 assayresult="> 100 µM"
compound=CC1=C(C(=O)Nc2ccccc2C)C(c2ccc(C3C(C(=O)Nc4ccccc4C)=C(C)NC(C)=C3C(=O)Nc3ccccc3C)cc2)C(C(=O)Nc2ccccc2C)=C(C)N1 assayresult="19.2 µM"
compound=COC(=O)[C@H]1[C@@H](O)[C@@]2(O)c3c(OC)cc(O[C@@H]4O[C@@H]([C@H](O)CO)CO[C@H]4OC)cc3O[C@@]2(c2ccc(OC)cc2)[C@@H]1c1ccccc1 assayresult="0.105 µM"
compound=NCCCCCCCCn1c2c(c3ccccc3c1=O)C(=O)c1ccccc1-2 assayresult="44.7 µM"
compound=Oc1cccc(-c2ccc3c4c2O[C@H]2c5[nH]c6ccccc6c5C[C@@]5(O)[C@@H](C3)N(CC3CC3)CC[C@]425)c1 assayresult="29.7 µM"
compound=CC1=[N+]([O-])C(C)(C)N(N=O)C1(C)C assayresult="> 10 µM"
compound="NC(=O)NC(=O)CCC(NS(=O)(=O)c1ccccc1)C(=O)NC(N)=O (centres undefined)" assayresult="> 100 µM"
compound=C/C(=C/c1ccccc1)CN(C(=O)/C=C\Sc1ccccc1)C(C)(C)C assayresult="> 100 µM"
compound=[O-]c1c[n+](CCCC[n+]2cc([O-])on2)no1 assayresult="> 100 µM"
compound=O=C1C=CC(=O)c2c1cc([N+](=O)[O-])c1ccoc21 assayresult="41.1 µM"
compound=O=c1[nH]cc(/C=N\Nc2ccccc2)c(=O)[nH]1 assayresult="> 100 µM"

---

# System: NCI-H522 lung
# testDetails: NCI tumour cell line growth inhibition, 48 h
propertyMeasured: GI50

testsmiles=CN[C@@H](C)C(=O)N[C@H]1CN(C(=O)CC(C)C)CC[C@H]2CC[C@@H](C(=O)NC(c3ccccc3)c3ccccc3)N2C1=O testedon="NCI-H522 lung" propertymeasured=GI50 assayresult="17.6 µM"
testsmiles=Cn1cc(-c2csc(-c3cn(C)c4ccc(Br)cc34)n2)c2cnccc21 testedon="NCI-H522 lung" propertymeasured=GI50 assayresult="1.76 µM"
testsmiles=Fc1ccc(-c2nn3c(CNc4ccccc4)nnc3s2)cc1 testedon="NCI-H522 lung" propertymeasured=GI50 assayresult="34.5 µM"
testsmiles=COc1ccccc1-c1cc(/C=C2\C(=O)Nc3ncc(Br)cc32)cc(Br)c1O testedon="NCI-H522 lung" propertymeasured=GI50 assayresult="6.1 µM"

---

# Test system: CCRF-CEM leukemia
# testDetails: NCI tumour cell line growth inhibition, 48 h
propertyMeasured: TGI

compound=O=c1oc2ccccc2n1P(=O)(n1c(=O)oc2ccccc21)n1c(=O)oc2ccccc21 propertymeasured=TGI assayresult="> 100 µM"
compound="CC1CN(c2ccc(Cl)cc2)CC(C)(C)OC(=O)O1 (centres undefined)" propertymeasured=TGI assayresult="> 100 µM"
compound=Sc1ccc2ccccc2c1CNCc1ccccc1 propertymeasured=TGI assayresult="54.1 µM"
compound=COc1ccc(/C=N/N=C(\N)NO)c(Cl)c1O propertymeasured=TGI assayresult="> 100 µM"
compound=COc1ccccc1/C=C/C(=O)c1c(O)cc2occc2c1OC propertymeasured=TGI assayresult="> 100 µM"
compound=O=c1cc(-c2ccccc2)oc2cc(OCC(O)COc3ccc4c(=O)cc(-c5ccccc5)oc4c3)ccc12 propertymeasured=TGI assayresult="> 100 µM"
compound=COc1cc(-c2nc(NC(C)=O)sc2-c2ccnc(NCCNS(=O)(=O)c3ccccc3)n2)ccc1Cl propertymeasured=TGI assayresult="> 100 µM"
compound=O=C(NO)c1ccc(OCc2cccc(Cl)c2)cc1 propertymeasured=TGI assayresult="> 100 µM"
compound=COc1cccc(C(=O)Nc2c3ccccc3nc3ccccc23)c1OC propertymeasured=TGI assayresult="> 100 µM"
compound=c1ccc(CSC2(SCc3ccccc3)CCCC2)cc1 propertymeasured=TGI assayresult="> 10 µM"
compound=Cc1n[n+](CC(=O)c2ccccc2)c2sc(N)nn12 propertymeasured=TGI assayresult="> 100 µM"
compound=C=CC(=O)N1C/C(=C\c2ccccc2)C(=O)/C(=C/c2ccccc2)C1 propertymeasured=TGI assayresult="3.55 µM"
compound=CC1=CC=C2c3ccccc3C=CN2C(=O)C1 propertymeasured=TGI assayresult="> 100 µM"
compound=Cc1ccccc1[P+](C)(c1ccccc1C)c1ccccc1C propertymeasured=TGI assayresult="0.0867 µM"
compound="CC(C)CC1C(=O)N2CCC[C@H]2C2(O)O[C@](NC(=O)C3C=C4c5cccc6[nH]c(Br)c(c56)C[C@H]4N(C)C3)(C(C)C)C(=O)N12 (some centres undefined)" propertymeasured=TGI assayresult="> 100 µM"
compound=Cc1ccc(S(=O)(=O)Oc2ccc([N+](=O)[O-])cc2[N+](=O)[O-])cc1 propertymeasured=TGI assayresult="15.7 µM"
compound="Cc1ccc2c(c1)C(C)Cc1c(ncnc1-n1cnc3cc(C)ccc31)N2C (centres undefined)" propertymeasured=TGI assayresult="17.6 µM"
compound=NC(=NCCCC1(c2ccccc2)CCCC1)Nc1ccc(Cl)cc1 propertymeasured=TGI assayresult="6.29 µM"
compound="O=c1[nH]c(=O)n(C2OC(CO)C(O)C2O)c2ncc(-c3ccc(-c4ccccc4)cc3)nc12 (centres undefined)" propertymeasured=TGI assayresult="> 20 µM"
compound="CSc1nc(NC2OCC(OC(C)=O)C(OC(C)=O)C2OC(C)=O)c(N=C(C)C(C)=O)c(=O)n1C (centres undefined)" propertymeasured=TGI assayresult="> 100 µM"
compound=O=Nc1c(-c2c(O)[nH]c3ccccc23)[nH]c2ccccc12 propertymeasured=TGI assayresult="29.7 µM"
compound=CN(C)C(=S)N1C(=S)N(c2ccccc2)C(=Nc2ccccc2)C1=Nc1ccccc1 propertymeasured=TGI assayresult="> 100 µM"
compound=COc1ccccc1-c1cc(/C=C2\C(=O)Nc3ncc(Br)cc32)cc(Br)c1O propertymeasured=TGI assayresult="> 25 µM"
compound=Cc1cc(C(=O)Nc2nc3cccc(Cl)c3n2[C@@H]2CCCCN(C(=O)/C=C/CN(C)C)C2)ccn1 propertymeasured=TGI assayresult="56.2 µM"
compound=CCCc1cc(=O)oc2c(C=O)c(O)cc(O)c12 propertymeasured=TGI assayresult="51.4 µM"
compound=C=CCCCn1ccc2ccccc21 propertymeasured=TGI assayresult="> 100 µM"
compound=CCCCC(C(=O)N/N=C/c1ccc([N+](=O)[O-])o1)C(=O)N/N=C/c1ccc([N+](=O)[O-])o1 propertymeasured=TGI assayresult="5.58 µM"
compound=Cc1ccc(/C=N/Nc2nc3ccccc3s2)s1 propertymeasured=TGI assayresult="> 100 µM"
compound=Cc1ccccc1N=CN(C)C propertymeasured=TGI assayresult="> 100 µM"
compound="CC(C)C1C(=O)NC(CO)Cc2c[nH]c3c(C(c4c[nH]c5ccccc45)C(O)CO)ccc(c23)N1C (centres undefined)" propertymeasured=TGI assayresult="> 100 µM"
compound="O=C1Nc2cc(Cl)ccc2N=CC1NC(=O)C(c1ccccc1)c1ccccc1Cl (centres undefined)" propertymeasured=TGI assayresult="> 100 µM"
compound=Fc1ccc(-c2nn3c(CNc4ccccc4)nnc3s2)cc1 propertymeasured=TGI assayresult="> 100 µM"
compound="C[C@@H](N)C1CCC(C(=O)Nc2ccncc2)CC1 (some centres undefined)" propertymeasured=TGI assayresult="> 100 µM"
compound=COc1cc2c(F)nccc2cc1C(=O)N[C@@H](c1ccc(F)c(Cl)c1)[C@@H]1C[C@@H](O)CN1 propertymeasured=TGI assayresult="> 42 µM"
compound=CC1=C(C)CC(C#N)(C#N)C(C#N)(C#N)C1 propertymeasured=TGI assayresult="> 10 µM"
compound=C[C@H]1C(=O)O[C@@H]1[C@H]1COC(C)(C)O1 propertymeasured=TGI assayresult="> 100 µM"
compound=CCOC(=O)Cc1nc2ccccc2s1 propertymeasured=TGI assayresult="72.8 µM"
compound=C=CCOc1ccc(/C(N=Nc2ccc(C)cc2)=N/NC(=O)c2ccccc2)cc1OC propertymeasured=TGI assayresult="41.1 µM"
compound="O=C(O)C1=C(C(=O)Nc2ccccc2)C2C=CC1C2 (centres undefined)" propertymeasured=TGI assayresult="> 100 µM"
compound=Nc1ccc(Oc2ccc(C3(c4ccc(Oc5ccc(N)cc5)cc4)C4CC5C6CC7CC5C3C(C7)C6C4)cc2)cc1 propertymeasured=TGI assayresult="> 100 µM"
compound=CCCCCN1CCN(c2ncccn2)CC1 propertymeasured=TGI assayresult="> 100 µM"
compound=COc1ccc(CCN2CCCN3C2=Nc2ccccc2S3(=O)=O)cc1 propertymeasured=TGI assayresult="> 100 µM"
compound="C1CCC(OCc2nnn3c2CCC3)OC1 (centres undefined)" propertymeasured=TGI assayresult="> 100 µM"
compound=O=C(CSc1nc2ccccc2nc1-c1ccccc1)Nc1ccc(Cl)cc1 propertymeasured=TGI assayresult="> 100 µM"

Values from PubChem BioAssay (NCI)
